test: Bioavailability in BALB/c mouse at 5 mg/kg, iv measured upto 24 hrs by LC-MS/MS analysis; type: ADME, organism-based; settings: in vivo
result type: bioavailability (%)
The response must be a number in % with no trailing unit.

Tell me measured bioavailability for `Cn1cnc(-c2ccc(F)cc2)c1-c1ccc2ncc(C#CC(C)(C)O)cc2c1` please.
84.6

----------
test: MRT(0 to t) in BALB/c mouse at 10 mg/kg, po measured upto 24 hrs by LC-MS/MS analysis; type: ADME, organism-based; conditions: in vivo
result type: MRT last at 24 h (h)
Express it in h; write the number only.

Supply recorded MRT last at 24 h for `Cn1cnc(-c2ccc(F)cc2)c1-c1ccc2ncc(C#CC(C)(C)O)cc2c1` here.
6.11

----------
assay: Tmax in BALB/c mouse at 10 mg/kg, po measured upto 24 hrs by LC-MS/MS analysis; type: ADME, organism-based; conditions: in vivo
result type: Tmax (h)
The reply should contain only the number, in h.

Report Tmax for `Cn1cnc(-c2ccc(F)cc2)c1-c1ccc2ncc(C#CC(C)(C)O)cc2c1`
1.17

----------
assay: MRT(0 to t) in BALB/c mouse at 5 mg/kg, iv measured upto 24 hrs by LC-MS/MS analysis; format: ADME, organism-based; settings: in vivo
result type: MRT last at 24 h (h)
// note: answer is a bare numeric in h

Determine from records and report MRT last at 24 h for `Cn1cnc(-c2ccc(F)cc2)c1-c1ccc2ncc(C#CC(C)(C)O)cc2c1`
4.46

----------
experiment: AUC(0 to t) in BALB/c mouse at 5 mg/kg, iv measured upto 24 hrs by LC-MS/MS analysis; type: ADME, organism-based; conditions: in vivo
result type: AUC(0-t) at 24 h (ng·h/mL)
Expressed in ng·h/mL, but write only the number.

Indicate the recorded AUC(0-t) at 24 h value for this compound: `Cn1cnc(-c2ccc(F)cc2)c1-c1ccc2ncc(C#CC(C)(C)O)cc2c1`
27000

----------
assay: Cmax in BALB/c mouse at 5 mg/kg, iv measured upto 24 hrs by LC-MS/MS analysis; format: ADME, organism-based; settings: in vivo
result type: Cmax (ng/mL)
Answer with a number only, understood to be in ng/mL.

In one line, give reported Cmax of the entry `Cn1cnc(-c2ccc(F)cc2)c1-c1ccc2ncc(C#CC(C)(C)O)cc2c1` .
6340

----------
assay: Apparent volume of distribution in BALB/c mouse at 5 mg/kg, iv measured upto 24 hrs by LC-MS/MS analysis; format: ADME, organism-based; settings: in vivo, read-out: Vz
result type: Vd

Find the measured Vd of `Cn1cnc(-c2ccc(F)cc2)c1-c1ccc2ncc(C#CC(C)(C)O)cc2c1` and report it.
0.846 L/kg

The measured values listed here are drawn from ChEMBL document CHEMBL5543106.
